Target: T1, Tumor-associated calcium signal transducer 2 (UniProt P09758 27-323, limits assumed)
T1 sequence (looked up): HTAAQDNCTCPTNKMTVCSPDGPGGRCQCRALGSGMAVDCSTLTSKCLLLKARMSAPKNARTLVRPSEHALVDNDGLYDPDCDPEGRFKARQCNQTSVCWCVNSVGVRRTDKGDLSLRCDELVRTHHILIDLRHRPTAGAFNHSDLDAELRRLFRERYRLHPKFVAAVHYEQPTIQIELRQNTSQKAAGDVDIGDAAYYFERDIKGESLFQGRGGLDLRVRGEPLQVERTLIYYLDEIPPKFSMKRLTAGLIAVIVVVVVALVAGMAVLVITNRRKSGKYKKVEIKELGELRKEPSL
Assay: cell-based or functional assay
Friendly reminder: IC50 (nM), in vitro killing activity, MDA-MB-468 Cell below 2 nM is class 1, at or above is class 0.

Please review the following examples before continuing.
binder	answer-label
FDA018-GGFG-Dxd (antibody, human IgG1, kappa, V domains shown, linker-drug GGFG-Dxd coupled to cysteine sulfhydryl groups after reduction of the interchain disulfide bonds; DAR 4.03 for the whole antibody; sites not stated) VH: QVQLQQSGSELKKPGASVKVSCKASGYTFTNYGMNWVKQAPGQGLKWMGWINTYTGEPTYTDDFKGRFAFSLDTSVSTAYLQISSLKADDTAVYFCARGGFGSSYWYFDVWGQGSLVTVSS VL: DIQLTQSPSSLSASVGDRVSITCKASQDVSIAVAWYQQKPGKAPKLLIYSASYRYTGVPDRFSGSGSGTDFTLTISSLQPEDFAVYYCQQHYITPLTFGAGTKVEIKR	class 1
FDA018-LS13 (antibody, human IgG1, kappa, V domains shown, linker-drug LS13 (SN-38 payload) coupled to cysteine sulfhydryl groups after reduction of the interchain disulfide bonds; DAR 3.97 for the whole antibody; sites not stated) VH: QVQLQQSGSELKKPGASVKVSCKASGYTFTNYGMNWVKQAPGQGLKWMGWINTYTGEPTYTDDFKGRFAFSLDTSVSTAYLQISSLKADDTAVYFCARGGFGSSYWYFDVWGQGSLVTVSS VL: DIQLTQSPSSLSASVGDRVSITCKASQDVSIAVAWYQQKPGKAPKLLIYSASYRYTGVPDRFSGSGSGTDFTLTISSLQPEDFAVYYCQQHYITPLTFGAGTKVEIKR	class 0
FDA018-LE12 (antibody, human IgG1, kappa, V domains shown, linker-drug LE12 (Dxd payload) coupled to cysteine sulfhydryl groups after reduction of the interchain disulfide bonds; DAR 3.90 for the whole antibody; sites not stated) VH: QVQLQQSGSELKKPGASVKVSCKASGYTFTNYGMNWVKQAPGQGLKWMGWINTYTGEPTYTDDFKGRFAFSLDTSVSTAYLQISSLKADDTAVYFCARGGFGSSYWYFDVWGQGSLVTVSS VL: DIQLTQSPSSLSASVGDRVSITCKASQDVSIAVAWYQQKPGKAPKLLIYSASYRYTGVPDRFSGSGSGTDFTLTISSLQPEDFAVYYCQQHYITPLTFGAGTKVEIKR	class 1

For the next question, use this binder.
(Q) For FDA018-LE16 (antibody, human IgG1, kappa, V domains shown, linker-drug LE16 coupled to cysteine sulfhydryl groups after reduction of the interchain disulfide bonds; DAR 4.03 for the whole antibody; sites not stated) VH: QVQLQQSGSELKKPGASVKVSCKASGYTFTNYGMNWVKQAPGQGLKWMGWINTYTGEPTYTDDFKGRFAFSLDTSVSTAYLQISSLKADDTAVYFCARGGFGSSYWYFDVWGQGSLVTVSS VL: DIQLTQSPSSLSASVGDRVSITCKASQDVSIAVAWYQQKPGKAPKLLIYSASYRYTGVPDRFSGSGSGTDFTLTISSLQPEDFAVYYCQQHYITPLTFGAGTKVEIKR , is the recorded IC50 (nM), in vitro killing activity, MDA-MB-468 Cell below the cut-off of 2 nM?
(A) class 1

Data origin, for the record: patent US20250057970A1
